All values here come from PubChem BioAssay (NCI).

Here, each record is paired with measured growth data.
# Test system: HCT-15 colon
# method: NCI-60 one-dose screen, 48 h (100 = growth as untreated, 0 = no growth, -100 = all killed)
# study.conditions: 10 µM unless noted
Compounds without any hit were thinned out: in the full panel of roughly 83,000, 20% have a hit.
property: growth (%)

INSERT INTO assay_data (compound, measure_unit, observed_result) VALUES
  ('CNC(=O)c1[nH]cc(-c2ccc(OC)cc2)c1-c1cc(OC)c2c(c1OC)OCO2', '%', 97.1),
  ('COc1c(C(=O)Nc2ccc(C)c(Br)c2)ccc2ccccc12', '%', 61.2),
  ('CCOC(=O)c1cc2c(n1C)-c1nc(NC(C)=O)sc1CCC2', '%', 88.3),
  ('Cn1c(I)c(C#CCO[Si](C)(C)C(C)(C)C)c(=O)[nH]c1=O', '%', 91),
  ('CCOC(=O)C1=C(c2ccccc2)N=C2SC=C(c3ccc(Cl)cc3)N2C1c1ccc(Cl)cc1 (stereo unspecified)', '%', 77.6),
  ('CCOC(=O)n1ccn(C)c1=S', '%', 104);

----------
Let's look at some molecules and their measured growth.
# Test system: A549/ATCC NSCLC
# method: NCI-60 one-dose screen, 48 h (100 = growth as untreated, 0 = no growth, -100 = all killed)
# study.conditions: 10 µM unless noted
# Experimental: Growth inhibition of the A549/ATCC human Non-Small Cell Lung tumor cell line is measured as a screen for anti-cancer activity. Cells are grown in 96 well plates and exposed to the test compound for 48 hours. Compounds are tested at a single concentration, which is 10^-5 M for most compounds. The reported endpoint is percent growth (GI% or GIPRCNT), where numbers from 0 - 100% represent growth inhibition, and numbers from -100% - 0 represent cell death. […]
The panel holds about 83,000 compounds, 20% with a hit somewhere; the sample as a whole holds those more often.
property: growth (%)

INSERT INTO results (molecule, property, measure_unit, observed_result) VALUES
  ('CCN(CC)CC(O)COc1c(Br)c(Br)c(Br)c2c1OC(C)(C)C2 (stereo unspecified)', 'growth', '%', 132),
  ('Cn1cc(-c2csc(-c3cn(C(=O)OC(C)(C)C)c4ccc(Br)cc34)n2)c2ccnc(Cl)c21', 'growth', '%', 70.3),
  ('CCN(C)S(=O)(=O)Nc1cccc(Nc2ncnc3cc(NC(=O)CCl)ccc23)c1Cl', 'growth', '%', 18.5),
  ('CCOC(=O)C1=C(c2ccccc2)N=C2SC=C(c3ccc(Cl)cc3)N2C1c1ccc(Br)cc1 (stereo unspecified)', 'growth', '%', 84.5),
  ('NC(=O)C(=O)c1ccccc1NC=O', 'growth', '%', 99.7),
  ('C/C(=N\O)c1ccc(Cl)cc1', 'growth', '%', 97.9);

----------
# Test system: RXF 393 renal
# method: NCI-60 one-dose screen, 48 h
# study.conditions: 10 µM unless noted
This is part of a sample that, as a whole, favours compounds with a hit. Of some 83,000 tested, about 20% had one in any assay. Calls of active or inactive are those of the source. The calls were made as follows: active = growth percent below 10; inactive = the rest.
Outcomes: active, inactive

INSERT INTO measurements (compound, category_label) VALUES
  ('CCCCCCCCCCCCCCCCOCCCOP(=O)(O)C1CCCN(O)C1=O (centres undefined)', 'active'),
  ('CCOCCNC1=C(Cl)C(=O)c2ccccc2C1=O', 'inactive'),
  ('COc1cc2oc(-c3cccc(NC(=O)c4ccccc4)c3)cc(=O)c2c(OC)c1OC', 'inactive'),
  ('C1CN(SSN2CCOCC2)CCO1', 'active'),
  ('C[C@@H](CO)[C@@H]1CCC=C2CC[C@]3(C)[C@H](CC[C@@H]4[C@@]5(C)CCCNC(C)(C)[C@@H]5CC[C@]43C)[C@H]21', 'inactive'),
  ('O=S(=O)(NCCNc1nccc(-c2c(-c3ccc(F)c(O)c3)nc3occn23)n1)c1ccc(Cl)cc1', 'inactive'),
  ('CC(C)COc1nc2c(c(=O)n(C)c(=O)n2C)n1C', 'inactive'),
  ('O=C1C(Cl)=C(Nc2ccc(S(=O)(=O)N3CCOCC3)cc2)C(=O)c2ccccc21', 'inactive'),
  ('CCN(CC)CCCCCNc1cc(OC(=O)c2ccc(Cl)cc2)cc2cccnc12', 'inactive'),
  ('CC1CCN(S(=O)(=O)c2ccc(S(=O)(=O)N3CCCC(c4nc5c(nnn5Cc5cccc(Cl)c5)c(=O)[nH]4)C3)cc2)CC1 (centres undefined)', 'inactive'),
  ('O=[N+]([O-])c1cccc(-c2nc3cc4nc5ccccc5[nH]c4cc3n2)c1', 'inactive'),
  ('O=C(Nc1ccc(Oc2cccc(Cl)c2)c(Cl)c1)c1cccnc1', 'active'),
  ('O=C1NC(=C(Cl)Cl)/C(=N\S(=O)(=O)NCc2ccccc2)N1', 'inactive'),
  ('CSc1nc(N)c(NS(=O)(=O)c2ccc(C(C)=O)cc2)c(=O)[nH]1', 'inactive'),
  ('O=C(/C=C/c1cn(-c2ccccc2)nc1-c1ccc(Cl)cc1)c1ccc(F)cc1', 'inactive'),
  ('COc1ccc(OC)c(Nc2nnc(-c3ccc(O)c(OC)c3)o2)c1', 'inactive'),
  ('N#Cc1nc(-c2ccc(F)cc2)oc1S(=O)(=O)N1CCCCC1', 'inactive'),
  ('C#CCNC(=O)[C@H](CC)[C@H]1CC[C@H](C)[C@H]([C@@H](C)[C@H](O)[C@H](C)C(=O)[C@H](CC)C2O[C@]3(C=CC(=O)[C@]4(CC[C@@](C)([C@H]5CC[C@](O)(CC)[C@H](C)O5)O4)O3)[C@H](C)C[C@@H]2C)O1 (some centres undefined)', 'inactive'),
  ('O=C1c2ccccc2-c2c1c1c(=O)[nH]c3ccccc3c1n2Cc1ccccc1', 'inactive');
